targetUnderTest: HLA-A*03:01
assaySummary: IEDB peptide-MHC binding, purified MHC/competitive/radioactivity; filed as Kd, often an IC50 or EC50 that approximates it; bounds were set here for any values at or beyond the usual limits of such assays
appliedConditions: source organism: Dengue virus 4 Philippines/H241/1956
reportedProperty: Kd (nM)
# unit: nM | format: bare number

>>> numericreadout("IVSSVNTTSK")
37.2

Proceed to the following item.
System HLA-A*03:01. Read-out Kd. Item `HLAIMAVFK` . Report value.
5.77

---

targetUnderTest: HLA-B*18:01
assaySummary: IEDB peptide-MHC binding, purified MHC/direct/fluorescence; filed as Kd, often an IC50 or EC50 that approximates it; bounds were set here for any values at or beyond the usual limits of such assays
appliedConditions: source organism: Bacillus anthracis str. Sterne
reportedProperty: Kd

Report Kd on HLA-B*18:01 for this entry: `TTYVYTLPV`
≥ 20 µM
